FYI, the data here is from the supplement of paper PMC4862054.

System: Hs578T
Assay: normalised response (% of control), CellTiter-Glo; higher = more viable cells (100 = DMSO, 0 = benzethonium chloride kill control)
Details: incubation time: 72 h
observed.property: normalised response (%)
Numbers only here, please. The scale is %.

Past entries and their recorded results:
[[record]]
molecule = "O=C(O)CNC(=O)c1c(O)c2ccccc2n(Cc2ccccc2)c1=O [IOX-2] (50 nM)"
unit_abbrev = "%"
measurement = 102

[[record]]
molecule = "CC(C)(C)c1nc(-c2cccc(NS(=O)(=O)c3c(F)cccc3F)c2F)c(-c2ccnc(N)n2)s1 [Dabrafenib] (250 nM)"
unit_abbrev = "%"
measurement = 90.8

[[record]]
molecule = "O=C(CCCCCCC(=O)Nc1ccccc1)NO [Vorinostat] (10 nM)"
unit_abbrev = "%"
measurement = 98.1

[[record]]
molecule = "C=CCN(/C=C1/C(=O)O[C@H](COC)[C@@]2(C)C1=C(O)C(=O)C1=C2[C@H](OC(C)=O)C[C@]2(C)C(=O)CC[C@@H]12)CC=C [Sonolisib] (10 nM)"
unit_abbrev = "%"
measurement = 97.9

[[record]]
molecule = "CCNC(=O)CCC/C=C\\C[C@@H]1[C@@H](/C=C/[C@@H](O)CCc2ccccc2)[C@H](O)C[C@@H]1O [Bimatoprost] (0.55 nM)"
unit_abbrev = "%"
measurement = 93.3


Query: What does the record list as normalised response for O=[N+]([O-])c1ccc2c(c1)S(=O)(=O)C=C2 [Stattic] (5 nM) ?
Reply: 104

Query: What does the record list as normalised response for CC(C)(C)c1nc(-c2cccc(NS(=O)(=O)c3c(F)cccc3F)c2F)c(-c2ccnc(N)n2)s1 [Dabrafenib] (0.25 nM) ?
Reply: 101

====

Each entry below carries its reported drug sensitivity score.
Tested on: HCC1937
Experiment: drug sensitivity score (DSS), CellTox Green (DSS (AUC-based score)); higher = stronger drug effect (viability inhibition or cytotoxicity); extreme values may be limits of the assay
Conditions: incubation time: 72 h
Give your answer as a number; write no unit.

Past entries and their recorded results:
[[record]]
compound = "CC(C)(C)c1nc(-c2cccc(NS(=O)(=O)c3c(F)cccc3F)c2F)c(-c2ccnc(N)n2)s1"
measurement = 1.11

[[record]]
compound = "CN(Cc1cnc2nc(N)nc(N)c2n1)c1ccc(C(=O)N[C@@H](CCC(=O)O)C(=O)O)cc1 [Methotrexate]"
measurement = 0

[[record]]
compound = "COc1cc(Nc2c(C#N)cnc3cc(OCCCN4CCN(C)CC4)c(OC)cc23)c(Cl)cc1Cl"
measurement = 1.87

[[record]]
compound = "Cc1cn(-c2cc(NC(=O)c3ccc(C)c(Nc4nccc(-c5cccnc5)n4)c3)cc(C(F)(F)F)c2)cn1"
measurement = 0


Next compound, drug sensitivity score to be filled in.
Query: What does the record list as drug sensitivity score for `CO[C@@]12[C@H](COC(N)=O)C3=C(C(=O)C(C)=C(N)C3=O)N1C[C@@H]1N[C@@H]12` ?
Reply: 0

====

Tested on: MDA-MB-231
Experiment: normalised viability (% of control), CellTiter-Blue; higher = more viable cells (100 = DMSO, 0 = benzethonium chloride kill control)
Conditions: incubation time: 72 h
observed.property: normalised viability (%)
Numbers only here, please. The scale is %.

[[record]]
compound = "CC(C)(C)NC(=O)[C@H]1CC[C@H]2[C@@H]3CC[C@H]4NC(=O)C=C[C@]4(C)[C@H]3CC[C@]12C [Finasteride] (1 nM)"
observed_property = "normalised viability"
measurement = 108

[[record]]
compound = "CCNC(=O)c1noc(-c2cc(C(C)C)c(O)cc2O)c1-c1ccc(CN2CCOCC2)cc1 [NVP-AUY922] (0.1 nM)"
observed_property = "normalised viability"
measurement = 121

[[record]]
compound = "CO[C@@]12[C@H](COC(N)=O)C3=C(C(=O)C(C)=C(N)C3=O)N1C[C@@H]1N[C@@H]12 [Mitomycin C] (1 nM)"
observed_property = "normalised viability"
measurement = 87.4


Query: What does the record list as normalised viability for Cc1cc(Nc2nc(N[C@@H](C)c3ncc(F)cn3)ncc2Cl)[nH]n1 [AZD1480] (0.1 nM) ?
Reply: 93.5

Query: What does the record list as normalised viability for COc1cc(Nc2c(C#N)cnc3cc(OCCCN4CCN(C)CC4)c(OC)cc23)c(Cl)cc1Cl [Bosutinib] (1 nM) ?
Reply: 100

Query: What does the record list as normalised viability for COc1c2occc2cc2ccc(=O)oc12 [Methoxsalen] (1 nM) ?
Reply: 105

Query: What does the record list as normalised viability for C=CCn1c(=O)c2cnc(Nc3ccc(N4CCN(C)CC4)cc3)nc2n1-c1cccc(C(C)(C)O)n1 [MK1775] (1 nM) ?
Reply: 95.2

Query: What does the record list as normalised viability for CCN(CC)CCCC(C)Nc1ccnc2cc(Cl)ccc12 (centres undefined) [Chloroquine] (0.099 nM) ?
Reply: 112

Query: What does the record list as normalised viability for CCNC(=O)CCC/C=C\C[C@@H]1[C@@H](/C=C/[C@@H](O)CCc2ccccc2)[C@H](O)C[C@@H]1O [Bimatoprost] (0.55 nM) ?
Reply: 120
